experimental.protocol: % NO yield on acid release, thermal energy analyzer (TEA)
Assay type: physicochemical
condition.info: weight percent of the theoretical maximum, dilute aqueous HCl
value.kind: % NO Yield (%)
Record the value in %, omitting the unit from your answer.

Query string: Reported % NO Yield, molecule `CN(CCN)[N+]([O-])=NO` : ____
Result string: 110

Query string: Which % NO Yield value is on record for `CCNCCCN(CC)[N+]([O-])=NO` ?
Result string: 100

Query string: // query % NO Yield value for entry `NCCCNCCCCN(CCCN)[N+]([O-])=NO`
Result string: 95

Query string: Looking for the measured % NO Yield of `CNCCN(C)[N+]([O-])=NO` , can you help?
Result string: 98

Query string: Reported % NO Yield for `CCCN(CCCN)[N+]([O-])=NO` : what is it?
Result string: 110

Query string: Fill in the blank: the reported % NO Yield of `NCCN(CCN)[N+]([O-])=NO` is ____.
Result string: 97
